Target: CDK12–cyclin K and DDB1 (Homo sapiens, UniProt Q16531+Q9NYV4, K965R)
Construct: His6–CDK12 (a.a. 713–1,052); full-length or beta-propeller B domain deletion (ΔBPB: a.a. 396–705 deleted) constructs of His6–DDB1ΔBPB, StrepII–Avi–DDB1, or His6–Spy–DDB1; made in house; host or cells: Trichoplusia ni High Five insect cells (baculovirus)
Sequence (Q9NYV4 713-1052 K965R): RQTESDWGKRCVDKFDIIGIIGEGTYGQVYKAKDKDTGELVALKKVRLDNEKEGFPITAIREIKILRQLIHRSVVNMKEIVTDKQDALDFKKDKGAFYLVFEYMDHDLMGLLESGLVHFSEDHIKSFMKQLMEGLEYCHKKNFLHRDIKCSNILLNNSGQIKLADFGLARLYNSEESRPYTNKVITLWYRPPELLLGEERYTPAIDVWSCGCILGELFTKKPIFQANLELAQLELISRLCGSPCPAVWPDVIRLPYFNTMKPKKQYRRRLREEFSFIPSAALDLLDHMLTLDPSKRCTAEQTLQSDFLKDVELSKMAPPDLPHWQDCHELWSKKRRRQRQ
Sequence (O75909 1-267 partner): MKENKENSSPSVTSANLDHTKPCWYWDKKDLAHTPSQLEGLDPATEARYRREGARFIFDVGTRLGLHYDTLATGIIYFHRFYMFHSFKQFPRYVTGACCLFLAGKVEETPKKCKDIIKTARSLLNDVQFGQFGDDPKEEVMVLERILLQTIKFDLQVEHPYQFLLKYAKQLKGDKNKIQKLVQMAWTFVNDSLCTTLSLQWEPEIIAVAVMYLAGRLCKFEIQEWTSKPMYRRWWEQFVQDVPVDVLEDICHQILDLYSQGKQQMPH
Sequence (Q16531 whole entry): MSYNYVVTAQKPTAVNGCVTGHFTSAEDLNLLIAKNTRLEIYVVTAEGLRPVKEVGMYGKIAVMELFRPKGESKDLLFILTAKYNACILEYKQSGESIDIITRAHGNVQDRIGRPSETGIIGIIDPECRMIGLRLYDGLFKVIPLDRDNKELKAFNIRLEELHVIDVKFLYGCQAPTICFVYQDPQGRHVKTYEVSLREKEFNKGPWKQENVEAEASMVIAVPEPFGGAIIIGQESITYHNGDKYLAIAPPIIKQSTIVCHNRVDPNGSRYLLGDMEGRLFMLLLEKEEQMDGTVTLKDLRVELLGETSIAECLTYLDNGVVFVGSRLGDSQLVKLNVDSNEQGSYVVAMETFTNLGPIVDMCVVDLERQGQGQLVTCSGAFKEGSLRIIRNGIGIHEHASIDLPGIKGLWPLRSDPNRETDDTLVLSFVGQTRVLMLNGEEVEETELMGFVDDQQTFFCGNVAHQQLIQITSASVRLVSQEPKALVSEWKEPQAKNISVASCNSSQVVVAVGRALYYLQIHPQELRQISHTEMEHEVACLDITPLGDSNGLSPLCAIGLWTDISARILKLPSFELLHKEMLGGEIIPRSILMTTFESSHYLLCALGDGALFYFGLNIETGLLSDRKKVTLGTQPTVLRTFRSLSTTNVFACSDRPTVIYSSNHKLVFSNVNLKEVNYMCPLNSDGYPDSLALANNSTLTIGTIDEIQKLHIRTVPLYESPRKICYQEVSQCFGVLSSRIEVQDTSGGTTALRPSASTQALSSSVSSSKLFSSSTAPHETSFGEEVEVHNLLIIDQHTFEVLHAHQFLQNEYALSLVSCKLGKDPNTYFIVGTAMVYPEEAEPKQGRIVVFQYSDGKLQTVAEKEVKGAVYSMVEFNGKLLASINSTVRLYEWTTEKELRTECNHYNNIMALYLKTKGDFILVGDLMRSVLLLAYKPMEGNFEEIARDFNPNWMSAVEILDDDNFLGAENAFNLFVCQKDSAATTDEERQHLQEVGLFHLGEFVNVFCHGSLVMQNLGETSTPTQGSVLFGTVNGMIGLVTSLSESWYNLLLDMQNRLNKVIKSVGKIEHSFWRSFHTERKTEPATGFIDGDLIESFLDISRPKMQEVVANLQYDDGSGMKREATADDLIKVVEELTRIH
Assay: TR-FRET ternary complex formation assay (compound titration)
Format: binding
Details: sheet MOESM7; read-out: log TR-FRET EC50 (converted)
endpoint: EC50 (nM)
Unit nM implied. Number only.

Some entries whose results are on file:
{"columns": ["compound", "EC50, nM"],
 "data": [
  ["Cn1cc(-c2cnn3c(NCc4nc5cc(Cl)c(Cl)cc5[nH]4)nc(N4CCOCC4)nc23)cn1 [DS74]", 19.8],
  ["Cc1ccc(C(=O)N2CSCC2C(=O)Nc2ncc(C)s2)o1 (centres unmarked) [dCeMM4]", 279],
  ["CC(C)c1nn(-c2c(Cl)cccc2Cl)c2nc(Cc3ccc(OCCO)cc3)[nH]c(=O)c12 [compound 21195]", 12],
  ["CC[C@H](CO)Nc1nc(NCCCCCc2ccccc2)c2ncn(C(C)C)c2n1 [DS02]", 285],
  ["CC[C@H](CO)Nc1nc(NCc2nc3cc(Cl)c(Cl)cc3[nH]2)c2ncn(C(C)C)c2n1 [DS17]", 13.2]
]}

Dear colleague, please send me the reported EC50 for CCc1cccc(CCCNc2nc(N[C@H](CC)CO)nc3c2ncn3C(C)C)c1 [DS67] when you can. 30.5

Dear colleague, please send me the reported EC50 for CC[C@H](CO)Nc1nc(NCc2ccc(CN(C)C)cc2)c2ncn(C(C)C)c2n1 [DS07] when you can. 285

Dear colleague, please send me the reported EC50 for Cn1cc(-n2cnc3c(NCc4nc5cc(Cl)c(Cl)cc5[nH]4)nc(NCCc4cn[nH]c4)nc32)cn1 [DS57] when you can. 72.3

----------
Target: CDK12–cyclin K and DDB1 (Homo sapiens, UniProt Q16531+Q9NYV4, K965R)
Construct: His6–CDK12 (a.a. 713–1,052); full-length or beta-propeller B domain deletion (ΔBPB: a.a. 396–705 deleted) constructs of His6–DDB1ΔBPB, StrepII–Avi–DDB1, or His6–Spy–DDB1; made in house; host or cells: Trichoplusia ni High Five insect cells (baculovirus)
Experiment: TR-FRET Kd determination, quadratic fit, 50 nM or 10 nM CDK12–cyclin K
Assay type: binding
Conditions: 10 nM CDK12-cyclin K; compound 7.92 nM
endpoint: TR-FRET signal
Form: value (number only, do not type unit).

{"columns": ["molecule", "TR-FRET signal"],
 "data": [
  ["CC[C@H](CO)Nc1nc(NCc2nc3cc(Cl)c(Cl)cc3[nH]2)c2ncn(C(C)C)c2n1 [DS17]", 0.5094],
  ["CCC(CO)Nc1nc(NCc2ccc(-c3ccccc3)cc2)c2ncn(C(C)C)c2n1 (stereo not shown) [DS16]", 0.2964],
  ["CCC(CO)Nc1nc(NCc2ccc(-c3ccccn3)cc2)c2ncn(C(C)C)c2n1 (stereo not shown) [CR8, reference compound]", 0.284]
]}

Dear colleague, please send me the reported TR-FRET signal for Cc1cc2nc(CNc3nc(N4CCN(C)CC4)nc4c(Br)cnn34)[nH]c2cc1C [DS73, reference compound] when you can. 0.4288

----------
Target: CDK12–cyclin K and DDB1 (Homo sapiens, UniProt Q16531+Q9NYV4, K965R)
Construct: His6–CDK12 (a.a. 713–1,052); full-length or beta-propeller B domain deletion (ΔBPB: a.a. 396–705 deleted) constructs of His6–DDB1ΔBPB, StrepII–Avi–DDB1, or His6–Spy–DDB1; made in house; host or cells: Trichoplusia ni High Five insect cells (baculovirus)
Experiment: TR-FRET Kd determination, quadratic fit, 50 nM or 10 nM CDK12–cyclin K
Type: binding
Conditions: 50 nM CDK12-cyclin K; compound 993.6 nM
Reported TR-FRET signal values are given for each entry in this list.
Form: value (number only, do not type unit).

Some entries whose results are on file:
{"columns": ["molecule", "endpoint", "observed measurement"],
 "data": [
  ["CCC(CO)Nc1nc(NCc2ccc(-c3ccccc3)cc2)c2ncn(C(C)C)c2n1 (stereo not shown)", "TR-FRET signal", 2.704],
  ["CCC(CO)Nc1nc(NCc2ccc(-c3ccccn3)cc2)c2ncn(C(C)C)c2n1 (stereo not shown) [CR8, reference compound]", "TR-FRET signal", 3.086],
  ["Cc1cc2nc(CNc3nc(N4CCN(C)CC4)nc4c(Br)cnn34)[nH]c2cc1C [DS73, reference compound]", "TR-FRET signal", 3.081]
]}

Now consider a different molecule.
Dear colleague, please send me the reported TR-FRET signal for `CC[C@H](CO)Nc1nc(NCc2nc3cc(Cl)c(Cl)cc3[nH]2)c2ncn(C(C)C)c2n1` when you can. 3.25

----------
Molecular target: CDK12–cyclin K and DDB1 (Homo sapiens, UniProt Q16531+Q9NYV4, K965R)
Construct: His6–CDK12 (a.a. 713–1,052); full-length or beta-propeller B domain deletion (ΔBPB: a.a. 396–705 deleted) constructs of His6–DDB1ΔBPB, StrepII–Avi–DDB1, or His6–Spy–DDB1; made in house; host or cells: Trichoplusia ni High Five insect cells (baculovirus)
Assay: TR-FRET ternary complex formation assay (compound titration)
Assay type: binding
Conditions: in vitro complex formation, 50 nM CDK12–cyclin K, 100 nM DDB1; text and figures; read-out: TR-FRET EC50
Reported pEC50 values are given for each entry in this list.
By convention, pEC50 is the negative base-10 log of a molar concentration.

Some entries whose results are on file:
{"columns": ["molecule", "target", "pEC50"],
 "data": [
  ["CC[C@H](CO)Nc1nc(NCCCc2cccc(C)c2)c2ncn(C(C)C)c2n1 [DS30]", "CDK12–cyclin K and DDB1 (Homo sapiens, UniProt Q16531+Q9NYV4, K965R)", 7.46],
  ["CCCCCCCCNc1nc(N[C@H](CC)CO)nc2c1ncn2C(C)C [DS06]", "CDK12–cyclin K and DDB1 (Homo sapiens, UniProt Q16531+Q9NYV4, K965R)", 5.93],
  ["CC[C@H](CO)Nc1nc(NCCCc2cccc(C)n2)c2ncn(C(C)C)c2n1 [DS69]", "CDK12–cyclin K and DDB1 (Homo sapiens, UniProt Q16531+Q9NYV4, K965R)", 7.44],
  ["O=C(CSc1nnc2c(n1)[nH]c1ccccc12)Nc1ccc(Cl)cn1 [dCeMM2]", "CDK12–cyclin K and DDB1 (Homo sapiens, UniProt Q16531+Q9NYV4, K965R)", 7.08]
]}

Dear colleague, please send me the reported pEC50 for CC[C@H](CO)Nc1nc(NCc2ccc(-c3ccncc3)nc2)c2ncn(C(C)C)c2n1 [DS53] when you can. 7.55

----------
Biological target: CDK12–cyclin K and DDB1 (Homo sapiens, UniProt Q16531+Q9NYV4, K965R)
Construct: His6–CDK12 (a.a. 713–1,052); full-length or beta-propeller B domain deletion (ΔBPB: a.a. 396–705 deleted) constructs of His6–DDB1ΔBPB, StrepII–Avi–DDB1, or His6–Spy–DDB1; made in house; host or cells: Trichoplusia ni High Five insect cells (baculovirus)
Test: TR-FRET ternary complex formation assay (compound titration)
Format: binding
Conditions: Supplementary Table 2; read-out: TR-FRET EC50 TR-FRET
Reported pEC50 values are given for each entry in this list.
By convention, pEC50 is the negative base-10 log of a molar concentration.

Some entries whose results are on file:
{"columns": ["compound", "observed measurement"],
 "data": [
  ["O=C(CSc1nc2ccccc2[nH]1)Nc1ccc(Cl)cn1 [dCeMM3]", 6.58],
  ["CC[C@H](CO)Nc1nc(NCC2CCCCC2)c2ncn(C(C)C)c2n1 [DS12]", 6.11],
  ["CC(C)n1cnc2c(NCc3ccc(-c4ccccn4)cc3)nc(N3CCCC[C@H]3CCO)nc21 [DS70]", 7.76]
]}

Dear colleague, please send me the reported pEC50 for Cn1cc(-n2cnc3c(NCc4nc5cc(O)ccc5[nH]4)nc(N4CCOCC4)nc32)cn1 [DS54] when you can. 6.60

Dear colleague, please send me the reported pEC50 for CC[C@H](CO)Nc1nc(NCc2ccc(-c3ccc4ccccc4c3)cc2)c2ncn(C(C)C)c2n1 [DS05] when you can. 6.03

----------
Molecular target: CDK12–cyclin K and DDB1 (Homo sapiens, UniProt Q16531+Q9NYV4, K965R)
Construct: His6–CDK12 (a.a. 713–1,052); full-length or beta-propeller B domain deletion (ΔBPB: a.a. 396–705 deleted) constructs of His6–DDB1ΔBPB, StrepII–Avi–DDB1, or His6–Spy–DDB1; made in house; host or cells: Trichoplusia ni High Five insect cells (baculovirus)
Test: TR-FRET Kd determination, quadratic fit, 50 nM or 10 nM CDK12–cyclin K
Format: binding
Conditions: 10 nM CDK12-cyclin K; compound 993.6 nM
endpoint: TR-FRET signal
Form: value (number only, do not type unit).

{"columns": ["compound", "target", "TR-FRET signal"],
 "data": [
  ["CCC(CO)Nc1nc(NCc2ccc(-c3ccccn3)cc2)c2ncn(C(C)C)c2n1 (stereo not shown) [CR8, reference compound]", "CDK12–cyclin K and DDB1 (Homo sapiens, UniProt Q16531+Q9NYV4, K965R)", 0.5359],
  ["CCC(CO)Nc1nc(NCc2ccc(-c3ccccc3)cc2)c2ncn(C(C)C)c2n1 (stereo not shown)", "CDK12–cyclin K and DDB1 (Homo sapiens, UniProt Q16531+Q9NYV4, K965R)", 0.4753],
  ["CC[C@H](CO)Nc1nc(NCc2nc3cc(Cl)c(Cl)cc3[nH]2)c2ncn(C(C)C)c2n1", "CDK12–cyclin K and DDB1 (Homo sapiens, UniProt Q16531+Q9NYV4, K965R)", 0.5613]
]}

Now consider a different compound.
Dear colleague, please send me the reported TR-FRET signal for Cc1cc2nc(CNc3nc(N4CCN(C)CC4)nc4c(Br)cnn34)[nH]c2cc1C [DS73, reference compound] when you can. 0.5387
